Provide the reported EC50 of each item.
biological target: Non-receptor tyrosine-protein kinase TYK2 (Homo sapiens); assay: TYK2 (TYK2/JAK2 PSTAT4 T-BLAST) Alpha Screen Assay
One number for each entry, in nM.

COCc1cc(-c2cn(C)c3cnc(NC(=O)CO)cc23)nc([C@]2(OC)CCOC2)c1 :: 92
CO[C@@]1(c2cc(C(F)F)cc(-c3cn(C4COC4)c4cnc(NC(N)=O)cc34)n2)CCOC1 [US20190276450, Example 12b.4] :: 45

For the 5 compounds below, give their EC50 values.
1. CO[C@@]1(c2cncc(-c3cn(C)c4cnc(NC(C)=O)cc34)n2)CCOC1
2. CO[C@]1(c2cc(C)cc(-c3cn(C)c4cnc(NC(N)=O)cc34)n2)CCOC1
3. CO[C@@]1(c2cc(C)cc(-c3cn(C)c4cnc(NC(N)=O)cc34)n2)CCOC1
4. COCc1cc(-c2cn(C)c3cnc(NC(N)=O)cc23)nc([C@]2(OC)CCOC2)c1
5. CO[C@@]1(c2cccc(-c3cn([C@H]4C[C@H](C#N)C4)c4cnc(NC(C)=O)cc34)n2)CCOC1

Ans.
368
445
25
35
31

For the 7 compounds below, give their EC50 values.
1. CO[C@@]1(c2cc(OCCO)cc(-c3cn(C)c4cnc(NC(C)=O)cc34)n2)CCOC1
2. CO[C@@]1(c2cccc(-c3cn(C4(C)COC4)c4cnc(NC(N)=O)cc34)n2)CCOC1
3. CO[C@@]1(c2cc(C(F)F)cc(-c3cn([C@H]4CCOC4)c4cnc(NC(N)=O)cc34)n2)CCOC1 [US20190276450, Example 12b.3]
4. CO[C@@]1(c2cc(C(F)F)cc(-c3cn(C)c4cnc(NC(=O)CO)cc34)n2)CCOC1
5. CO[C@]1(c2cc(C#N)cc(-c3cn([C@H]4CC4(F)F)c4cnc(NC(C)=O)cc34)n2)CCOC1
6. CO[C@@]1(c2cccc(-c3cn(C4(C)COC4)c4cnc(NC(C)=O)cc34)n2)CCOC1
7. CC(=O)Nc1cc2c(-c3cc(C(F)F)cc([C@]4(CO)CCOC4)n3)cn(C)c2cn1

Ans.
91
198
56
50
2360
494
72

====

biological target: Non-receptor tyrosine-protein kinase TYK2 (Homo sapiens, UniProt P29597); experiment: TYK2 (TYK2/JAK2 PSTAT4 T-BLAST) Alpha Screen Assay
Sequence (P29597 whole entry): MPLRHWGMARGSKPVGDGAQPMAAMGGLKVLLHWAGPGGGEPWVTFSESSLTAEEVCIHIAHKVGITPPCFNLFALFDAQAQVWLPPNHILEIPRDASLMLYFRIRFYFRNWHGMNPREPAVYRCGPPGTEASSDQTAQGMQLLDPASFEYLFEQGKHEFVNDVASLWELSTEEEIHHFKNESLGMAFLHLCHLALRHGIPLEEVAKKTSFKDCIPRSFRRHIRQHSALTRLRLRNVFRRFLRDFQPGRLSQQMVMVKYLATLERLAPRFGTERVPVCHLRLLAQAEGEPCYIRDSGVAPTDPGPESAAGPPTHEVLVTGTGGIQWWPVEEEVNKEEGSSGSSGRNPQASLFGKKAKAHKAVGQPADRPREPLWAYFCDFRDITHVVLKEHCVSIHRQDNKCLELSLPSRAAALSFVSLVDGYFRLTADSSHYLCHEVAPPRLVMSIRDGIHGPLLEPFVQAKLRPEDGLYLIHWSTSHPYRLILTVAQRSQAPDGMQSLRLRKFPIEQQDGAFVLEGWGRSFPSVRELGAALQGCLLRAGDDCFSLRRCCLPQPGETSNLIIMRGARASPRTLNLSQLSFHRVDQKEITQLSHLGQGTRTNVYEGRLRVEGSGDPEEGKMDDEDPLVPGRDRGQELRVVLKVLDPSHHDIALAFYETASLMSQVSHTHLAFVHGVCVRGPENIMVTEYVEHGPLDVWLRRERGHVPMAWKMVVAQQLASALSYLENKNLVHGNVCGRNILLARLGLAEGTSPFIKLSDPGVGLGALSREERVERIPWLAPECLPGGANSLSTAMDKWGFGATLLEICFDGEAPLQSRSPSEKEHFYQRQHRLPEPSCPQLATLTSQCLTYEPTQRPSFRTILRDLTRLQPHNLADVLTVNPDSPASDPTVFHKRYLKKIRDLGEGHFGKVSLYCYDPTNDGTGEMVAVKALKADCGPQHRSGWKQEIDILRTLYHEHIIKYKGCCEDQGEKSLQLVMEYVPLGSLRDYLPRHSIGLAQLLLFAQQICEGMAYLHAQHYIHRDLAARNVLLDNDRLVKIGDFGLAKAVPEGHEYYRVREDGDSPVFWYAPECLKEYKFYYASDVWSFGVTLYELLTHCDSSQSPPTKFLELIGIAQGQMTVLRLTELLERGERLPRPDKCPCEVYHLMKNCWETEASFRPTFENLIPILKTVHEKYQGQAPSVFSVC
Provide the reported EC50 of each item.
One number for each entry, in nM.

COC1(c2cccc(-c3c[nH]c4cnc(NC(C)=O)cc34)n2)CCOC1 (centres undefined) [US20190276450, Example 16-NH] :: 3140
COCc1cc(-c2c[nH]c3cnc(NC(C)=O)cc23)nc([C@]2(OC)CCOC2)c1 [US20190276450, Example 2-NH] :: 310
COc1cc(-c2cn(C)c3cnc(NC(C)=O)cc23)nc([C@]2(OC)CCOC2)c1 [US20190276450, Example 20] :: 137

Attention now shifts to the item below.
Qu. EC50 of CO[C@@]1(c2cccc(-c3cn(C)c4cnc(NC(N)=O)cc34)n2)CCOC1 [US20190276450, Example 1] on Non-receptor tyrosine-protein kinase TYK2 (Homo sapiens, UniProt P29597)?
Ans. 59

Origin of values: BindingDB's records for patent US20190276450
